pIC50, Epidermal growth factor receptor (Homo sapiens, UniProt P00533, T790M): measured values
One number for each entry, as −log10 of the molar value.

Entry O=c1c2ccc(Cl)cc2nc(-c2ccccc2)n1-c1nnc(C2CC2)s1 — recorded pIC50 = 6.99

Entry O=c1c2ccc(Cl)cc2nc(-c2ccccc2)n1-c1nnc(-c2ccccc2)s1 — recorded pIC50 = 5.95

Entry COc1ccc(-c2nnc(-n3c(-c4ccccc4)nc4cc(Cl)ccc4c3=O)s2)cc1 — recorded pIC50 = 7.68

Entry O=C(Nn1c(-c2ccccc2)nc2ccccc2c1=O)c1ccc(Br)cc1 — recorded pIC50 = 6.11

Entry CC(=O)c1ccccc1-n1c(-c2ccccc2)nc2cc(Cl)ccc2c1=O — recorded pIC50 = 6.14

Batch: pIC50 for all items listed.
1. O=c1c2ccccc2nc(-c2ccccc2)n1-c1nnc(-c2ccccc2Cl)s1
2. NCCn1c(-c2ccccc2)nc2cc(Cl)ccc2c1=O

Reply:
1: 5.14; 2: 6.54

---

Target: Epidermal growth factor receptor (Homo sapiens, UniProt P00533)
Sequence (P00533 whole entry): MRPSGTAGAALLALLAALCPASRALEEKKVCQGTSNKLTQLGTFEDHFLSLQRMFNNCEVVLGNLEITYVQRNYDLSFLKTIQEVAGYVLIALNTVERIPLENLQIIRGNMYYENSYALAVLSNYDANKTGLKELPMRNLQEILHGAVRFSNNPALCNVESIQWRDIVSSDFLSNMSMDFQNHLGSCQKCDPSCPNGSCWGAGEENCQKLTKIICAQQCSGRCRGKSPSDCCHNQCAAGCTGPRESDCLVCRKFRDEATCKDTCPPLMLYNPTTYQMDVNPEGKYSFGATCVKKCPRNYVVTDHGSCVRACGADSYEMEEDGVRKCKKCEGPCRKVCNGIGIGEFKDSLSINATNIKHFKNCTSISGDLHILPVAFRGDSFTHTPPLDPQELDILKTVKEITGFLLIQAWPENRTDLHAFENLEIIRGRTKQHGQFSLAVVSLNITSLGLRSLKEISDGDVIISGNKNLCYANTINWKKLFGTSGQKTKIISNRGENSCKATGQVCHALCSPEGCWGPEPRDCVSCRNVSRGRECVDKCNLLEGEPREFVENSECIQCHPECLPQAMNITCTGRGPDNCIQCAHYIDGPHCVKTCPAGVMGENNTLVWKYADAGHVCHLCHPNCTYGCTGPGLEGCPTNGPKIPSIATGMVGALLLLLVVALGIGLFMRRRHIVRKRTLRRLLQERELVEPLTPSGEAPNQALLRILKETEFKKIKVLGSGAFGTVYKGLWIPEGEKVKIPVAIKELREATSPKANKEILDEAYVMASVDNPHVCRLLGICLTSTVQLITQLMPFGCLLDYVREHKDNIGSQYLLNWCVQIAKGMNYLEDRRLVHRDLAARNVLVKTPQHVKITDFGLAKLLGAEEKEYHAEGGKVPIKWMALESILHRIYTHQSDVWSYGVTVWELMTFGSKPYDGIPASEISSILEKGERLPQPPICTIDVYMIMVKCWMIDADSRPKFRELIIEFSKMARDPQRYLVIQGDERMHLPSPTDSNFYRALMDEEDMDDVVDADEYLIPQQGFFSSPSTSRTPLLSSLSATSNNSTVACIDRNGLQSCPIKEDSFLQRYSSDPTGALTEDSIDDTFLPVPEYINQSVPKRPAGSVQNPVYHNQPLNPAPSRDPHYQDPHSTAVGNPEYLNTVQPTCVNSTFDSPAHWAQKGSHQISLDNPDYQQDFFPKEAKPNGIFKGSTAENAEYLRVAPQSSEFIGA
pIC50: −log10 of the molar value.
pIC50 vs 6: at or above is class 1, below is class 0.

Task item: Identify whether the reported pIC50 of the following compound is 6 or greater: O=C(Nn1c(-c2ccccc2)nc2ccccc2c1=O)c1ccc(Br)cc1
Reply: class 1

Continuing:
Task item: Identify whether the reported pIC50 of the following compound is 6 or greater: O=c1c2ccccc2nc(-c2ccccc2)n1-c1nnc(-c2ccccc2Cl)s1
Reply: class 0

Task item: Identify whether the reported pIC50 of the following compound is 6 or greater: CC(=O)c1ccccc1-n1c(-c2ccccc2)nc2cc(Cl)ccc2c1=O
Reply: class 0

Task item: Identify whether the reported pIC50 of the following compound is 6 or greater: NCCn1c(-c2ccccc2)nc2cc(Cl)ccc2c1=O
Reply: class 0

Task item: Identify whether the reported pIC50 of the following compound is 6 or greater: O=c1c2ccc(Cl)cc2nc(-c2ccccc2)n1-c1nnc(C2CC2)s1
Reply: class 1

Task item: Identify whether the reported pIC50 of the following compound is 6 or greater: O=c1c2ccc(Cl)cc2nc(-c2ccccc2)n1-c1nnc(-c2ccccc2)s1
Reply: class 0

Task item: Identify whether the reported pIC50 of the following compound is 6 or greater: COc1ccc(-c2nnc(-n3c(-c4ccccc4)nc4cc(Cl)ccc4c3=O)s2)cc1
Reply: class 1
